- Tested on: HT-29
- experimental-protocol: NCI tumour cell line growth inhibition, 48 h
Calls of active or inactive are those of the source. No stated cut-off is given here; in the data, active = GI50 up to about 1.1 µM and inactive = higher.
Catalogue of GI50 values

A selection of reference data follows.
compound	GI50
Nc1nn2c(nc(N)c3c(N)n[nH]c32)c1/N=N\c1ccc(Br)cc1	55.8 µM (inactive)
O=C1/C(=C/c2ccccc2)N=C(c2ccccc2)N1n1c(-c2ccccc2)nc2ccccc2c1=O	70.5 µM (inactive)
O=C(O)c1ccccc1NS(=O)(=O)c1ccc(Cl)cc1	> 100 µM (inactive)
CCN(CC)CCNc1ccc2nnn3c4ccc([N+](=O)[O-])cc4c(=O)c1c23	3.89 µM (inactive)
O1C2C1C1OC1C1OC1C1OC21 (stereo unspecified)	> 100 µM (inactive)

Switching to the query record.
Lab note: Cc1ccc(S(=O)(=O)N/N=c2/sc3ccccc3n2C)cc1 gave GI50 of > 100 µM (inactive)

Numbers sourced from ChEMBL document CHEMBL1201862.
